pIC50: −log10 of the molar value.
# pIC50 against Serine/threonine-protein kinase B-raf (Homo sapiens), merged from multiple literature sources

{"Smiles Code": "CCCS(=O)(=O)Nc1ccc(F)c(C(=O)c2c[nH]c3ncc(-c4ccc(C)nc4)cc23)c1F", "Reported Measurement": "> 8.00"}
{"Smiles Code": "CCCS(=O)(=O)Nc1ccc(F)c(C(=O)c2c[nH]c3ncc(-c4ccc(OCCCN(C)C)nc4)cc23)c1F", "Reported Measurement": "≥ 5.00"}
{"Smiles Code": "Cc1cc(Oc2cc(NC(=O)C3CC3)ncn2)ccc1NC(=O)Nc1cccc(C(F)(F)F)c1", "Reported Measurement": 6.84}

Using Serine/threonine-protein kinase B-raf (Homo sapiens) as the test system, report measured pIC50 of `O=C(Nc1ccc(Oc2cc(NC(=O)C3CC3)ncn2)cc1)Nc1ccc(Cl)c(C(F)(F)F)c1` .
7.61

Fill: pIC50 (Serine/threonine-protein kinase B-raf (Homo sapiens)) for this molecule `CN1CCN(Cc2cc(NC(=O)Nc3ccc(Oc4ccnc(NC(=O)C5CC5)c4)cc3)cc(C(F)(F)F)c2)CC1`
8.34

Specify pIC50 for `N#Cc1cnc2[nH]cc(C(=O)c3c(F)ccc(NS(=O)(=O)CC(F)(F)F)c3F)c2c1` , system Serine/threonine-protein kinase B-raf (Homo sapiens).
≥ 5.00

Enter measured pIC50, system Serine/threonine-protein kinase B-raf (Homo sapiens), for the molecule shown: `COc1cnc2[nH]cc(C(=O)c3c(F)ccc(NS(=O)(=O)N4CCCC4)c3F)c2c1`
≥ 5.00

Please look at `CCCS(=O)(=O)Nc1ccc(F)c(C(=O)c2c[nH]c3ncc(-c4ccc(OCCN5CCCC5)nc4)cc23)c1F` and tell me its recorded pIC50 on Serine/threonine-protein kinase B-raf (Homo sapiens).
> 8.00

---

// cross-source set; read-out = IC50; system = Serine/threonine-protein kinase B-raf (Homo sapiens)

{"Smiles Code": "Cc1ccc(Oc2ccnc(NC(=O)C3CC3)c2)cc1NC(=O)Nc1cc(F)cc(C(F)(F)F)c1", "IC50": "29 nM"}
{"Smiles Code": "CCS(=O)(=O)Nc1ccc(F)c(C(=O)c2c[nH]c3ncc(C#N)cc23)c1F", "IC50": "≤ 10000 nM"}
{"Smiles Code": "O=C(c1c(F)ccc(OCc2ccccc2)c1F)c1c[nH]c2ncc(-c3cccnc3)cc12", "IC50": "≤ 10000 nM"}

Given `O=C(Nc1ccc(Oc2ccnc(NC(=O)C3CC3)c2)c(F)c1)Nc1cc(C(F)(F)F)ccc1F` , respond with its IC50.
37 nM

Consider the molecule `COc1ccc(S(=O)(=O)Nc2ccc(F)c(C(=O)c3c[nH]c4ncc(C#N)cc34)c2F)cn1` . State its measured IC50.
≤ 10000 nM

Query IC50 for `CCCS(=O)(=O)Nc1ccc(F)c(C(=O)c2c[nH]c3ncc(OCCN4CCOCC4)cc23)c1F`
≤ 10000 nM

Input `O=C(Nc1cnc(Oc2ccnc(NC(=O)C3CC3)c2)c(Cl)c1)Nc1ccc(Cl)c(C(F)(F)F)c1` , output reported IC50.
18.1 nM

Note down IC50 recorded for `COc1ncc(-c2cnc3[nH]cc(C(=O)c4c(F)ccc(NS(=O)(=O)C5CCCC5)c4F)c3c2)cn1`
≤ 10000 nM

---

pIC50: −log10 of the molar value.
pIC50 for Serine/threonine-protein kinase B-raf (Homo sapiens, UniProt P15056), merged from several publications.

The following compounds have reported results that may help.
{"Compound": "CCCS(=O)(=O)Nc1cc(F)c(F)c(C(=O)c2ccc3ncc(-n4ccnc4)nc3c2)c1F", "pIC50": "> 7.30"}
{"Compound": "COc1cc2ncnc(Oc3ccc(NC(=O)Nc4ccc(Cl)c(C(F)(F)F)c4)cc3)c2c2c1OCCO2", "pIC50": "6.30 to 6.70"}
{"Compound": "N#Cc1cc(NC(=O)Nc2ccc(Oc3ccnc(NC(=O)C4CC4)c3)cc2)cc(C(F)(F)F)c1", "pIC50": 7.14}

Enter measured pIC50, system Serine/threonine-protein kinase B-raf (Homo sapiens, UniProt P15056), for the compound shown: `Cn1cc(-c2cnc3[nH]cc(C(=O)c4cc(NS(=O)(=O)c5cccnc5)ccc4F)c3c2)cn1`
≥ 5.00

Fill in pIC50 for `N#Cc1cnc2[nH]cc(C(=O)c3cccc(NS(=O)(=O)c4c(F)cccc4F)c3F)c2c1` tested with Serine/threonine-protein kinase B-raf (Homo sapiens, UniProt P15056).
> 7.00

Write pIC50 of `CCCS(=O)(=O)Nc1cccc(C(=O)c2c[nH]c3ncc(-c4cnc(N(C)C)nc4)cc23)c1F` ; system used: Serine/threonine-protein kinase B-raf (Homo sapiens, UniProt P15056)
≥ 5.00

Return reported pIC50 for target or system Serine/threonine-protein kinase B-raf (Homo sapiens, UniProt P15056), item O=C(CCCCC1SCC2NC(=O)NC21)NCCCCCNC(=O)CCc1cnc2[nH]cc(C(=O)c3c(F)ccc(NS(=O)(=O)c4ccc(C(F)(F)F)cc4)c3F)c2c1 (stereo not shown) .
≥ 5.00

Report measured pIC50 on Serine/threonine-protein kinase B-raf (Homo sapiens, UniProt P15056); entry: `CCCS(=O)(=O)Nc1ccc(F)c(C(=O)c2c[nH]c3ncc(-c4ccc(C(=O)NC)nc4)cc23)c1F`
≥ 5.00

Under Serine/threonine-protein kinase B-raf (Homo sapiens, UniProt P15056), report pIC50 for `Cc1cc(-c2sc(N)nc2-c2cccc(NC(=O)c3c(F)cccc3F)c2)nc(Nc2cccc(OCCN(C)C)c2)n1`
< 6.00

Give measured pIC50 for `Cc1ccc(NC(=O)c2cccc(C(F)(F)F)c2)cc1C#Cc1nn(C2CCN(C)CC2)c2ncnc(N)c12` (Serine/threonine-protein kinase B-raf (Homo sapiens, UniProt P15056)).
7.66

Give pIC50 for this entry on Serine/threonine-protein kinase B-raf (Homo sapiens, UniProt P15056): `Cc1cnc2[nH]cc(C(=O)c3c(F)ccc(NS(=O)(=O)c4ccccc4F)c3F)c2c1`
> 7.00

Report the value of pIC50 obtained on Serine/threonine-protein kinase B-raf (Homo sapiens, UniProt P15056) for `O=C(Nc1ccc(Cl)c(C(F)(F)F)c1)Nc1ccc(Oc2cc(NC(=O)C3CC3)ncn2)cc1F` .
7.59

Report value only: pIC50, Serine/threonine-protein kinase B-raf (Homo sapiens, UniProt P15056), `CCCS(=O)(=O)Nc1ccc(F)c(C(=O)c2c[nH]c3ncc(-c4ccc(S(C)(=O)=O)cc4)cc23)c1F`
> 8.00

Consider the compound `CCCS(=O)(=O)Nc1cccc(C(=O)c2c[nH]c3ncc(C(=O)OC)cc23)c1F` tested on Serine/threonine-protein kinase B-raf (Homo sapiens, UniProt P15056); state its pIC50.
≥ 5.00
